# System: U2OS
# ASSAY SUMMARY: Multiplex assay against U2OS
# Format: toxicity, cell-based
# TEST CONTEXT: human, 24 h, 1 µM, compound concentration 1 uM, replicate 1
MEASURED QUANTITY: Population Normal (%)
Give just the number in %; leave the unit off.

>  <COMPOUND>
COc1cc2ncn(-c3cc(OCc4ccccc4C(F)(F)F)c(C(N)=O)s3)c2cc1OC [GW843682X]

>  <ASSAY TARGET>
U2OS

>  <UNIT STRING>
%

>  <Population Normal (%)>
96

$$$$
>  <COMPOUND>
O=C(c1cc2c(cc1F)OC(c1ccc(F)cc1)(c1ccc(Cl)cc1Cl)O2)N1CCOCC1 (centres undefined)

>  <ASSAY TARGET>
U2OS

>  <UNIT STRING>
%

>  <Population Normal (%)>
92

$$$$
>  <COMPOUND>
CNC(=O)Nc1ccc2c(c1)[C@@]1(CC2)OC(=O)N(CC(=O)N(Cc2ccc(F)cc2)[C@@H](C)C(F)(F)F)C1=O

>  <ASSAY TARGET>
U2OS

>  <UNIT STRING>
%

>  <Population Normal (%)>
95

$$$$

Challenge: I am curious: what Population Normal (%) value has been reported for `COc1ccccc1CN[C@H]1C2CCN(CC2)[C@H]1C(c1ccccc1)c1ccccc1` ?
Response given: 92

Challenge: And for `Cl.O=C(O)c1cc(-c2ccc(C3CCNCC3)cc2)c2ccc(-c3ccc(C(F)(F)F)cc3)cc2c1` ?
Response given: 92

###

# Test system: HEK-293T
# ASSAY SUMMARY: Multiplex assay against HEK293T
# Format: toxicity, cell-based
# TEST CONTEXT: human, 24 h, 1 µM, compound concentration 1 uM, replicate 2
Consider the following compounds and their measured Population Membrane Permeable-Phenotype (%) readings.
Quick reminder: number only, in %, skip the unit.

Below are worked cases with known answers.
>  <TEST SMILES>
CNC(=O)Nc1ccc(-c2nc(N3CC4CCC(C3)O4)c3cnn(C4CCC5(CC4)OCCO5)c3n2)cc1

>  <MEASUREMENT>
8

$$$$
>  <TEST SMILES>
Cc1nc(N2CC[C@H](O)C2)ncc1-c1cc(C(F)(F)F)cc2[nH]ncc12

>  <MEASUREMENT>
4

$$$$
>  <TEST SMILES>
CC(C)c1noc(N2CCC(COc3ccc(-c4ccc(S(C)(=O)=O)cc4)nc3)CC2)n1

>  <MEASUREMENT>
8

$$$$
>  <TEST SMILES>
CC(C)OC(=O)N1CCC(Oc2ncnc3c2cnn3-c2ccc(S(C)(=O)=O)cc2F)CC1

>  <MEASUREMENT>
9

$$$$
>  <TEST SMILES>
CC(C)NC(=O)N1CC[C@H](NC2=Nc3cc(F)ccc3N(CC(F)F)c3ccc(Cl)cc32)C1

>  <MEASUREMENT>
8

$$$$

Challenge: # query: Population Membrane Permeable-Phenotype (%) of entry `O=c1cc(N2CCOCC2)oc2c(-c3cccc4c3sc3ccccc34)cccc12`
Response given: 3

Challenge: Another compound to look at: `CCOC(=O)Nc1cc(-c2ccc(C)c(NS(C)(=O)=O)c2)nn2c(C)nnc12`
Response given: 0

###

# Tested on: HEK-293T
# ASSAY SUMMARY: Multiplex assay against HEK293T
# Format: toxicity, cell-based
# TEST CONTEXT: human, 12 h, 10 µM, compound concentration 10 uM, replicate 2
MEASURED QUANTITY: Total Cell Count
Would you mind answering with just the numeric figure?

// worked examples, Total Cell Count included
>  <COMPOUND>
Cc1cccc(CN2CCN(C(c3ccccc3)c3ccc(Cl)cc3)CC2)c1.Cl.Cl (centres undefined)

>  <MEASUREMENT>
206

$$$$
>  <COMPOUND>
CC1=C(C(=O)Nc2cc3cn[nH]c3cc2F)C(c2ccc(C(F)(F)F)cc2)CC(=O)N1 (centres undefined)

>  <MEASUREMENT>
240

$$$$
>  <COMPOUND>
CN1CCN(Cc2ccc(Nc3ncc(Cl)c(Nc4ccccc4S(=O)(=O)N(C)C)n3)cc2)CC1 [DUBERMATINIB]

>  <MEASUREMENT>
214

$$$$

Challenge: # lookup: Total Cell Count of `Cl.O=C(O)c1cc(-c2ccc(C3CCNCC3)cc2)c2ccc(-c3ccc(C(F)(F)F)cc3)cc2c1`
Response given: 111

###

# Tested on: HEK-293T
# ASSAY SUMMARY: Multiplex assay against HEK293T
# Type: toxicity, cell-based
# TEST CONTEXT: human, 24 h, 10 µM, compound concentration 10 uM, replicate 1
Below, each entry is listed with its recorded Population Pyknosed Nuclei (%).
Please respond with the number in % and leave the unit unwritten.

Before answering, review these 2 worked examples.
>  <COMPOUND>
CC(C)Oc1ccccc1C(=O)Nc1ccccc1C(=O)Nc1cccc(S(=O)(=O)C(F)(F)F)c1

>  <UNIT STRING>
%

>  <MEASUREMENT>
49

$$$$
>  <COMPOUND>
CCc1ccc(OCc2ccccc2C(=O)Nc2ccc3nc(C)cc(N)c3c2)cc1.Cl

>  <UNIT STRING>
%

>  <MEASUREMENT>
79

$$$$

Challenge: Could you share which Population Pyknosed Nuclei (%) value was measured for Cc1cccc(CN2CCN(C(c3ccccc3)c3ccc(Cl)cc3)CC2)c1.Cl.Cl (stereo not drawn) ?
Response given: 46

###

# Tested on: U2OS
# ASSAY SUMMARY: Multiplex assay against U2OS
# Format: toxicity, cell-based
# TEST CONTEXT: human, 24 h, 10 µM, compound concentration 10 uM, replicate 1
MEASURED QUANTITY: Population Healthy Nuclei (%)
Enter your answer as a number in %; do not include the unit.

Examples from the recorded data:
>  <MOLECULE>
O=c1[nH]c2ccccc2n1C1CCN(Cc2ccc(-c3[nH]c4cc5ncnc5cc4nc3-c3ccccc3)cc2)CC1

>  <Population Healthy Nuclei (%)>
50

$$$$
>  <MOLECULE>
CNC(=O)Nc1ccc(-c2nc(N3CC4CCC(C3)O4)c3cnn(C4CCC5(CC4)OCCO5)c3n2)cc1

>  <Population Healthy Nuclei (%)>
35

$$$$
>  <MOLECULE>
O=c1cc(N2CCOCC2)oc2c(-c3cccc4c3sc3ccccc34)cccc12

>  <Population Healthy Nuclei (%)>
27

$$$$
>  <MOLECULE>
C=CC(=O)Nc1cccc(Sc2nc(Nc3ccc(N4CCN(C)CC4)cc3)ncc2Cl)c1

>  <Population Healthy Nuclei (%)>
82

$$$$

Challenge: What is its Population Healthy Nuclei (%) for U2OS? Entry: `CC(C)c1noc(N2CCC(COc3ccc(-c4ccc(S(C)(=O)=O)cc4)nc3)CC2)n1`
Response given: 67

Challenge: Repeat with CCc1nn(CCCN2CCN(c3cccc(Cl)c3)CC2)c(=O)n1CCOc1ccccc1.Cl [NEFAZODONE HYDROCHLORIDE]
Response given: 49

Challenge: Could you do the same for `CCc1ccc(OCc2ccccc2C(=O)Nc2ccc3nc(C)cc(N)c3c2)cc1.Cl` , please?
Response given: 13

Challenge: Cool, now Cc1cccc(CN2CCN(C(c3ccccc3)c3ccc(Cl)cc3)CC2)c1.Cl.Cl (configuration not stated)
Response given: 74

Challenge: Would you mind doing `CC(C)Oc1ccccc1C(=O)Nc1ccccc1C(=O)Nc1cccc(S(=O)(=O)C(F)(F)F)c1` as well?
Response given: 48

Challenge: Could you do the same for `COc1cc(Nc2nccc(-c3cnn4nc(OC)ccc34)n2)cc(C(F)(F)F)c1` , please?
Response given: 50

Challenge: Now this one: Cc1ccccc1C(c1ccccc1C)N1C2CCC1CC(O)(c1ccccc1)C2 (configuration not stated)
Response given: 74

Challenge: Field entry: `COC(=O)C1=C(C)NC(C)=C(C(=O)OCCCN2CCC(c3ccccc3)(c3ccccc3)CC2)[C@H]1c1cccc([N+](=O)[O-])c1`
Response given: 2

Challenge: Ok, now CC1=C(C(=O)Nc2cc3cn[nH]c3cc2F)C(c2ccc(C(F)(F)F)cc2)CC(=O)N1 (configuration not stated)
Response given: 86

Challenge: Queued: `Cl.O=C(O)c1cc(-c2ccc(C3CCNCC3)cc2)c2ccc(-c3ccc(C(F)(F)F)cc3)cc2c1`
Response given: 72

Challenge: Same thing, different molecule: `Cc1nc(N2CC[C@H](O)C2)ncc1-c1cc(C(F)(F)F)cc2[nH]ncc12`
Response given: 91

Challenge: Now consider `CNC(=O)Nc1ccc2c(c1)[C@@]1(CC2)OC(=O)N(CC(=O)N(Cc2ccc(F)cc2)[C@@H](C)C(F)(F)F)C1=O` and answer again.
Response given: 92

Challenge: Now this one: `CN1CCN(Cc2ccc(Nc3ncc(Cl)c(Nc4ccccc4S(=O)(=O)N(C)C)n3)cc2)CC1`
Response given: 24

###

# Test system: Fibroblast
# ASSAY SUMMARY: Incucyte cell viability with human fibroblast; also: filed as whole numbers so only -1 and 0 and 1 occur
# Format: toxicity, cell-based
# TEST CONTEXT: 12 h, 10 µM, compound concentration 10 uM, replicate number 2, timepoint 12 hours
Reported Growth Rate by item:

Illustrative cases are given below, each with its answer.
>  <MOLECULE>
CC1(C)CCC(C)(C)c2cc(C(=O)Nc3ccc(C(=O)O)cc3)ccc21

>  <ASSAY TARGET>
Fibroblast

>  <Growth Rate>
0

$$$$
>  <MOLECULE>
Cl.Cl.Cl.c1ccc(N2CCN(Cc3nc4ccccc4[nH]3)CC2)nc1

>  <ASSAY TARGET>
Fibroblast

>  <Growth Rate>
1

$$$$
>  <MOLECULE>
CC(C)Oc1ccc(-c2c[nH]cc2CN(C)CCN)cc1

>  <ASSAY TARGET>
Fibroblast

>  <Growth Rate>
0

$$$$
>  <MOLECULE>
CC(C)OC(=O)N1CCC(Oc2ncnc3c2cnn3-c2ccc(S(C)(=O)=O)cc2F)CC1

>  <ASSAY TARGET>
Fibroblast

>  <Growth Rate>
0

$$$$
>  <MOLECULE>
COc1ccc(S(=O)(=O)c2cc(OC)ccc2S(=O)(=O)c2ccc([C@H](C)NS(C)(=O)=O)cc2)cc1

>  <ASSAY TARGET>
Fibroblast

>  <Growth Rate>
1

$$$$

Challenge: # query: Growth Rate | item `CC(C)(C)NC[C@H](O)COc1nsnc1N1CCOCC1` | system: Fibroblast
Response given: 0

Challenge: Can you check Cc1cccc(CN2CCN(C(c3ccccc3)c3ccc(Cl)cc3)CC2)c1.Cl.Cl (stereo not drawn) next?
Response given: 0

Challenge: Param item: `O=C(NCC(=O)N1CCCC1)Nc1ccc2cnccc2c1`
Response given: 1
